Each item that follows carries a reported inhibition.
Test system: Tyrosine-protein kinase ABL1 (Homo sapiens), P00519 [H396P]
Details: at 0.1 µM
measure: inhibition (%)

compound	readout_number
c1cnn2ncc(-c3ccnc(Nc4ccc5c(c4)OCCO5)n3)c2c1	6.51
COc1cc2ncn(-c3cc(OCc4ccccc4C(F)(F)F)c(C(N)=O)s3)c2cc1OC	5.99
CC1=C(C(=O)Nc2ccc3[nH]ncc3c2)C(c2ccc(Cl)c(Cl)c2)CC(=O)N1 (configuration not stated)	1.38
CCCN1CCC(Oc2cc(Nc3nc(Nc4cccc(F)c4C(N)=O)c4cc[nH]c4n3)c(OC)cc2Cl)CC1	0.38
COC(=O)Nc1nc2cc(Oc3cccc(NC(=O)Nc4cc(C(F)(F)F)ccc4F)c3)ccc2[nH]1	9.03
COc1cc(C)c(NC(=O)CN(C)C)cc1Nc1nc(Nc2cccc(F)c2C(N)=O)c2cc[nH]c2n1	2.73
CS(=O)(=O)CCN(CC#N)Cc1ccc(-c2ccc3ncnc(Nc4ccc(OCc5cccc(F)c5)c(Cl)c4)c3c2)o1	1.77
CCn1c(-c2nonc2N)nc2cnc(Oc3cccc(NC(=O)c4ccc(OCCN5CCOCC5)cc4)c3)cc21	4.58
COc1ccc2cc(-c3c(-c4ccncc4)nc(-c4ccc([S+](C)[O-])cc4)n3C)ccc2c1 (configuration not stated)	0.68
CCn1c(-c2nonc2N)nc2cncc(C(=O)N3CC[C@H](N)C3)c21	5.83
CC1=C(C(=O)Nc2ccc3[nH]ncc3c2)C(c2ccc(F)cc2)NC(=O)N1 (configuration not stated)	1.62
CC(=O)Nc1cccc(C#Cc2cncnc2Nc2ccc(OCc3cccc(F)c3)c(Cl)c2)n1	0.09
O=C1NC(=O)C(c2cccc(Cl)c2)=C1Nc1ccc(O)c(Cl)c1	1.43
CS(=O)(=O)CCNCc1nc(-c2ccc3ncnc(Nc4ccc(F)c(Cl)c4)c3c2)cs1	5.57
O=C1NC(=O)C(c2ccccc2Cl)=C1Nc1cccc(O)c1	3.02
NS(=O)(=O)c1cccc(-c2ccc3c(NC(=O)C4CC4)n[nH]c3c2)c1	3.4
CN(C)c1cc2c(Nc3ccc4nc(Cc5ccccc5)[nH]c4c3)ncnc2cn1	6.52
CS(=O)(=O)CCNCc1ccc(-c2ccc3ncnc(Nc4ccc(OCc5ccccc5)c(Cl)c4)c3c2)o1	0.8
CCN1CCC(CC(=O)Nc2n[nH]c3nc(-c4cccs4)c(Br)cc23)CC1	-0.27
CCn1c(-c2nonc2N)nc2c(N3CCCC3)nccc21	0.1
NC(=O)c1ccc(-c2nc(-c3ccccn3)c(-c3ccc4c(c3)OCO4)[nH]2)cc1	1.34
CNC(=O)c1cncc(/C=C/c2c(Cl)cccc2Cl)c1	9.69

* * *

In this section, each of the molecules is paired with its reported inhibition.
Target: Maternal embryonic leucine zipper kinase (Homo sapiens) (UniProt Q14680);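 note: reported figure is the mean percent inhibition of MELK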
Sequence (Q14680 whole entry, looked up): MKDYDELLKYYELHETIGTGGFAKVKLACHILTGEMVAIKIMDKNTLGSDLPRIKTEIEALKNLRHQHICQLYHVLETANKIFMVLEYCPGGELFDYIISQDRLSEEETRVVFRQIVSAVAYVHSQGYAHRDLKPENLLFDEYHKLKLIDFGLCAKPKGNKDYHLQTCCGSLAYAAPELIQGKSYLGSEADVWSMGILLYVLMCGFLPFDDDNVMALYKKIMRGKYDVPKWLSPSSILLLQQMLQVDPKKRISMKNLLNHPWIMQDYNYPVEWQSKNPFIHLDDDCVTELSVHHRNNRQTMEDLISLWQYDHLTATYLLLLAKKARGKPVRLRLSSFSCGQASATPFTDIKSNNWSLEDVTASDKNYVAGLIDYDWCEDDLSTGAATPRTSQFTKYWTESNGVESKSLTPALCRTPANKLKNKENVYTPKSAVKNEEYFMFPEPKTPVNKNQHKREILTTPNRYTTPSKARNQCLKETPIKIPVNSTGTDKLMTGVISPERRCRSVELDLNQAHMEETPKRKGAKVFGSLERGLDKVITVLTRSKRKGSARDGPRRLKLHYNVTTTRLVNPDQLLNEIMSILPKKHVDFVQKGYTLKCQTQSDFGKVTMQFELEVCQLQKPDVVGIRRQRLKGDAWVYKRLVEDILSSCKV
Conditions: at 0.1 µM

molecule	inhibition, %
COc1ccc(-c2nn3ncccc3c2-c2ccnc(Nc3ccc(Cl)c(C(F)(F)F)c3)n2)cc1	0.2
Nc1nc(-c2ccc3c(c2)C(=Cc2cc(Br)c(O)c(Br)c2)C(=O)N3)cs1	0.07
CC1=C(C(=O)Nc2ccc3[nH]ncc3c2)C(c2ccc(F)cc2)NC(=O)N1 (stereo not drawn)	2.13
CC(C)=Cc1cccc2c1/C(=N/Nc1ccc(S(N)(=O)=O)cc1)C(=O)N2	0.98
Cc1cc(O)cc(C)c1/C=C/c1cncc(-c2nn[nH]n2)c1	4.83
COc1ccc(COc2ccc(Cc3cnc(N)nc3N)cc2OC)cc1	0.82
CCCN1CCC(Oc2cc(Nc3nc(Nc4cccc(F)c4C(N)=O)c4cc[nH]c4n3)c(OC)cc2Cl)CC1	1.25
O=C1NC(=O)C(c2cccc(Cl)c2)=C1Nc1ccc(O)c(Cl)c1	0.77

* * *

Target: Receptor-type tyrosine-protein kinase FLT3 (Homo sapiens);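 note: mean inhibition value from the GSK PKIS kinase screening set, with the assay run by Nanosyn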
Details: at 0.1 µM
Examples of molecules with documented inhibition follow.

molecular_string	tested_target	inhibition [%]
c1cnn2ncc(-c3ccnc(Nc4ccc5c(c4)OCCO5)n3)c2c1	Receptor-type tyrosine-protein kinase FLT3 (Homo sapiens)	29.5
CS(=O)(=O)CCN(CC#N)Cc1ccc(-c2ccc3ncnc(Nc4ccc(OCc5cccc(F)c5)c(Cl)c4)c3c2)o1	Receptor-type tyrosine-protein kinase FLT3 (Homo sapiens)	-0.67
CCN1CCC(CC(=O)Nc2n[nH]c3nc(-c4cccs4)c(Br)cc23)CC1	Receptor-type tyrosine-protein kinase FLT3 (Homo sapiens)	-0.9
CCn1c(-c2nonc2N)nc2c(C#CC(C)(C)O)nc(CN3CCCC3)cc21	Receptor-type tyrosine-protein kinase FLT3 (Homo sapiens)	-1.67
COC(=O)Nc1nc2cc(Oc3cccc(NC(=O)Nc4cc(C(F)(F)F)ccc4F)c3)ccc2[nH]1	Receptor-type tyrosine-protein kinase FLT3 (Homo sapiens)	-3.12
O=C1NC(=O)C(c2cccc(Cl)c2)=C1Nc1ccc(O)c(Cl)c1	Receptor-type tyrosine-protein kinase FLT3 (Homo sapiens)	-1.02
NC(=O)c1cccc(Nc2nccc(Nc3cccc4[nH]ncc34)n2)c1	Receptor-type tyrosine-protein kinase FLT3 (Homo sapiens)	6.63
CS(=O)(=O)CCNCc1ccc(-c2ccc3ncnc(Nc4ccc(OCc5ccccc5)c(Cl)c4)c3c2)o1	Receptor-type tyrosine-protein kinase FLT3 (Homo sapiens)	1.48
O=C1Nc2ccc(C(=O)c3ccco3)cc2C1=Cc1cc(Cl)c(O)c(Cl)c1	Receptor-type tyrosine-protein kinase FLT3 (Homo sapiens)	1.69
Fc1cccc(COc2ccc(Nc3ncnc4cc(-c5ccc[nH]5)sc34)cc2Cl)c1	Receptor-type tyrosine-protein kinase FLT3 (Homo sapiens)	-0.44
CCn1c(-c2nonc2N)nc2ccncc21	Receptor-type tyrosine-protein kinase FLT3 (Homo sapiens)	3.16
CCCN1CCC=C(c2ccc(Nc3nc(Nc4ccccc4C(N)=O)c4cc[nH]c4n3)c(C)c2)C1	Receptor-type tyrosine-protein kinase FLT3 (Homo sapiens)	6.74
Fc1cccc(COc2ccc(Nc3ncnc4sc(-c5cccs5)cc34)cc2Cl)c1	Receptor-type tyrosine-protein kinase FLT3 (Homo sapiens)	0.38

* * *

Biological target: Ephrin type-B receptor 4 (Homo sapiens) (UniProt P54760);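 note: each value is a mean percent inhibition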
Sequence (P54760 whole entry): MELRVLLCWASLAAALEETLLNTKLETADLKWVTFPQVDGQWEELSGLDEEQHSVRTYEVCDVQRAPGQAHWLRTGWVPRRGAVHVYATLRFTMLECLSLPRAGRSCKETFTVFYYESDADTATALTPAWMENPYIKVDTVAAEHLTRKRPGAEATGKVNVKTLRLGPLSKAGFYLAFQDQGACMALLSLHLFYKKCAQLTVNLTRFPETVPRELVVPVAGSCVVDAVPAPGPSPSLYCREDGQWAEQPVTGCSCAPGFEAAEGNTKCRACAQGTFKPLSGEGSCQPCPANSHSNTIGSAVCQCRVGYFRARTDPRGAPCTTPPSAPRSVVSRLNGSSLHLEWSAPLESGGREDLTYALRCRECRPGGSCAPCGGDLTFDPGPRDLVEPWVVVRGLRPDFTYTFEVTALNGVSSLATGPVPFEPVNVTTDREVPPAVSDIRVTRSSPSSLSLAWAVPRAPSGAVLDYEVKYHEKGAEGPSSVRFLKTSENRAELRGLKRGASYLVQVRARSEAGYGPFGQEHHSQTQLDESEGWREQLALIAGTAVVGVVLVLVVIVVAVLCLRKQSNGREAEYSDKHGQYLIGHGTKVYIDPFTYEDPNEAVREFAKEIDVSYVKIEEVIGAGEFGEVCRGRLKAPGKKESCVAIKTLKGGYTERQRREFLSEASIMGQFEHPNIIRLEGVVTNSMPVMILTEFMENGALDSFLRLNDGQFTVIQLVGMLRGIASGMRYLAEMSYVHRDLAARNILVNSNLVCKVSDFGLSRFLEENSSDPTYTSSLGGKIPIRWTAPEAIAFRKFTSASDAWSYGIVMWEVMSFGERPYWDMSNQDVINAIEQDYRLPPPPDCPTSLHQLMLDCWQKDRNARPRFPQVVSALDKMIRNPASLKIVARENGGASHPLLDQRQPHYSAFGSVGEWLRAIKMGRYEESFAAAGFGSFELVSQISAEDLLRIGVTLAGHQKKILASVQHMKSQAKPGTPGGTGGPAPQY
Conditions: at 0.1 µM
Catalogue of inhibition readings, one per entry.
measure: inhibition (%)

compound	readout_number
Cc1ccc(C(=O)NC2CCCCC2)cc1-c1ccc(C(=O)NCC2CC2)cc1	1.61
O=C1NC(=O)C(N2CCc3ccccc32)=C1c1ccc(Cl)cc1	3.92
NS(=O)(=O)c1ccc(N/N=C2\C(=O)Nc3ccc(C(=O)NCCc4c[nH]cn4)cc32)cc1	4.11
COC(=O)Nc1nc2cc(Oc3cccc(NC(=O)Nc4cc(C(F)(F)F)ccc4F)c3)ccc2[nH]1	0.65
CCn1c(-c2nonc2N)nc2cnc(Oc3cccc(NC(=O)c4ccc(OCCN5CCOCC5)cc4)c3)cc21	3.21
CCn1c(-c2nonc2N)nc2ccncc21	-0.26
CCCN1CCC(Oc2cc(Nc3nc(Nc4cccc(F)c4C(N)=O)c4cc[nH]c4n3)c(OC)cc2Cl)CC1	-0.64
COc1cc2ncn(-c3cc(O[C@H](C)c4ccccc4Cl)c(C(N)=O)s3)c2cc1OC	4.27
CC1=C(C(=O)Nc2ccc3[nH]ncc3c2)C(c2ccc3ccccc3c2)CC(=O)N1 (stereo unspecified)	3.21
Nc1nc(-c2ccc3c(c2)C(=Cc2cc(Br)c(O)c(Br)c2)C(=O)N3)cs1	-0.3
Fc1cccc(COc2ccc(Nc3ncnc4cc(-c5ccc[nH]5)sc34)cc2Cl)c1	-1.44
COc1cc(C=NNc2ncnc3c2cnn3-c2ccccc2)ccc1O	2.58
O=C1Nc2ccc(C(=O)c3ccco3)cc2C1=Cc1cc(Cl)c(O)c(Cl)c1	3.11
Fc1cccc(COc2ccc(Nc3ncnc4sc(-c5cccs5)cc34)cc2Cl)c1	1.37
COc1cccc(-n2ncc3c(N/N=C/c4cccc(F)c4)ncnc32)c1	-0.91
COc1cc2ncn(-c3cc(O[C@@H](C)c4ccccc4Cl)c(C(N)=O)s3)c2cc1OC	1.67
CC(C)=Cc1cccc2c1/C(=N/Nc1ccc(S(N)(=O)=O)cc1)C(=O)N2	1.72
NC(=O)c1ccc(-c2nc(-c3ccccn3)c(-c3ccc4c(c3)OCO4)[nH]2)cc1	3.74
CCn1c(-c2nonc2N)nc2c(N3CCCC3)nccc21	-1.4
COc1ccc2cc(-c3c(-c4ccncc4)nc(-c4ccc([S+](C)[O-])cc4)n3C)ccc2c1 (stereo unspecified)	2.71
CCn1c(-c2nonc2N)nc2c(C#CC(C)(C)O)nc(OC[C@@H](N)c3ccccc3)cc21	-2.4

* * *

Biological target: Serine/threonine-protein kinase PLK1 (Homo sapiens);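 note: reported values are mean PLK1 inhibition, measured as part of the GSK PKIS profiling set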
Settings: at 0.1 µM

compound	tested_target	unit	inhibition
Cc1ccc(C(=O)NC2CCCCC2)cc1-c1ccc(C(=O)NCC2CC2)cc1	Serine/threonine-protein kinase PLK1 (Homo sapiens)	%	3
CC1=C(C(=O)Nc2ccc3[nH]ncc3c2)C(c2ccc(Cl)c(Cl)c2)CC(=O)N1 (stereo not given)	Serine/threonine-protein kinase PLK1 (Homo sapiens)	%	2.57
CNC(=O)c1cncc(/C=C/c2c(Cl)cccc2Cl)c1	Serine/threonine-protein kinase PLK1 (Homo sapiens)	%	3.89
O=C1Nc2ccc(C(=O)c3ccco3)cc2C1=Cc1cc(Cl)c(O)c(Cl)c1	Serine/threonine-protein kinase PLK1 (Homo sapiens)	%	9.81
CCn1c(-c2nonc2N)nc2cncc(C(=O)N3CCNCC3)c21	Serine/threonine-protein kinase PLK1 (Homo sapiens)	%	5.97
